All figures here come from patent US20140370037A1.

Study target: T1, human DLL3 antigen (human, UniProt Q9NYJ7 27-492)
T1 chain: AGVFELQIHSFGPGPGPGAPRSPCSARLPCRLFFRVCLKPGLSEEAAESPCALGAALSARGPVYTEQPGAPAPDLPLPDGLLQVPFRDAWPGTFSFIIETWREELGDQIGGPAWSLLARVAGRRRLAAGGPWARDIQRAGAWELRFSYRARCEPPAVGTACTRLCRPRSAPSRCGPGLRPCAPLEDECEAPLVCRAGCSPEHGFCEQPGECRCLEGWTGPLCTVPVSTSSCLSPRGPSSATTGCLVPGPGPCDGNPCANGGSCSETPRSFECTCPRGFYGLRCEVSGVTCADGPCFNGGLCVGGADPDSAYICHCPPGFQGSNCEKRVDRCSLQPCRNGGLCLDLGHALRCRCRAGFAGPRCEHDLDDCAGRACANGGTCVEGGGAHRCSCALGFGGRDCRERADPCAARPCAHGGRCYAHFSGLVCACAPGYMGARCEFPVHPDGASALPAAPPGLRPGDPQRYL
Test name: SPR
So basically, if Kd comes in under 0.5 nM it's class 1, and if it's 0.5 nM or more it's class 0.

Use these answered entries as a reference point.
SC16.13 (antibody, V domains shown) VH: QVTLKESGPGILQPSQTLSLTCSFSGFSLSTSGMGVGWIRQPSGKGLEWLAHIWWDDVKRYNPALKSRLTISKDTSSSQVFLKIASVDTADTATYYCARIVSFDNDVVSAMDYWGQGTSVTVSS VL: QIVLTQSPALVSASPGEKVTMTCSASSSVSYMYWYQQKPRSSPKPWIYLTSNLASGVPARFSGSGSGTSYSLTISSMEAEDAATYYCQQWRSNPFTFGSGTKLEIK    class 1
hSC16.15 (antibody, V domains shown) VH: QVQLVQSGAEVKKPGASVKVSCKASGYTFTRYWIHWIRQAPGQGLEWMGYINPTTVYTEFNQNFKDRVTMTRDTSTSTVYMELSSLRSEDTAVYYCARGGSNFFDYWGQGTTVTVSS VL: AIQLTQSPSSLSASVGDRVTITCRASENIYYNLAWYQQKPGKAPKLLIYTANSLEDGVPSRFSGSGSGTDFTLTISSLQPEDFATYFCKQAYDVPPTFGGGTKLEIK    class 1
SC16.34 (antibody, V domains shown) VH: QIQLVQSGPELKRPGETVKISCKASGYTFTNYGMNWVKQAPGKGLKWMGWINTYTGDPTYADDFKGRFAFSLETSASTAYLQINNLKNEDTATYFCARIGGNSPSDYWGQGTSLTVSS VL: SIVMTQTPKFLLVSAGDRVTITCKASQSVSNDVAWYQQKPGQSPKLLIYYASNRYSGVPDRFTGSGYGTDFTFTISTVQAEDLAVYFCQQDYSSPWTFGGGTKLEIK    class 0
hSC16.34 (antibody, V domains shown) VH: QVQLVQSGAEVKKPGASVKVSCKASGYTFTNYGMNWVRQAPGQRLEWMGWINTYTGDPTYADDFKGRVTITRDTSASTAYMELSSLRSEDTAVYYCARIGGNSPSDYWGQGTTVTVSS VL: DIQMTQSPSSLSASVGDRVTITCKASQSVSNDVAWYQQKPGKVPKLLIYYASNRYSGVPSRFSGSGSGTDFTLTISSLQPEDVATYFCQQDYSSPWTFGGGTKVEIK    class 0

input: Kd strictly < 0.5 nM for this binder? hSC16.25 (antibody, V domains shown) VL: EIVLTQSPDFQSVTPKEKVTITCSASSSVSYMHWYQQKPDQSPKLLIKDSSKLASGVPSRFSGSGSGTDFTLTINSLEAEDAATYYCQQWSSNPLTFGQGTKLEIK V domain: QITLKESGPTLVKPTQTLTLTCTFSGFSLSTSGMGVGWIRQPPGKALEWLTDIWWDDNKYYNPSLKSRLTITKDTSKNQVVLTMTNMDPVDTATYYCARRVNYYYDPYYAMDYWGQGTTLVTVS
output: class 1

input: Take the binder SC16.25 (antibody, V domains shown) VH: QVTLKESGPGILQPSQTLSLTCSFSGFSLSTSGMGVGWIRQPSGEGLEWLTDIWWDDNKYYNPSLKSRLTISKDTSSNQVFLNITSVDTADTATYYCARRVNYYYDPYYAMDYWGQGTSVTVSS VL: QIVLTQSPAIMSASPGEKVTMTCSASSSVSYMHWYQQKSGTSPKRWIYDSSKLASGVPARFSGSGSGTSYSLTISSMEAEDAATYYCQQWSSNPLTFGAGTKLELK and say whether its Kd is less than 0.5 nM.
output: class 1
